Cell viability (%) Calvarial cell listing for selected compounds.
- System: Osteoblasts (Calvarial cells)
- procedure details: Cytotoxicity test (MTT)
- condition: 1 μM compound, 72 hours, in comparison with vehicle control
Remember to put the unit after the number in your answer.

O=C(O)C1CCN(c2ccc(Nc3nc(NCCCn4ccnc4)ccc3[N+](=O)[O-])cc2F)CC1 :: 105%
CCN(CC)c1ccc(Nc2nc(NC(C)C)ccc2[N+](=O)[O-])cc1F :: 109%
CNc1ccc([N+](=O)[O-])c(Nc2ccc(N3CCCCC3)c(F)c2)n1 :: 100%
NC(=O)C1CCN(c2ccc(Nc3nc(N4CCC(N)CC4)ccc3[N+](=O)[O-])cc2F)CC1 :: 107%
CNc1ccc([N+](=O)[O-])c(Nc2ccc(N3CCOCC3)c(F)c2)n1 :: 97%

[in] For `CC1=NCCN1c1ccc([N+](=O)[O-])c(Nc2ccc(N3CCCCC3)c(F)c2)n1` , what is its reported Cell viability (%) Calvarial cell?
[out] 103%

[in] Same question, `CCN(CC)c1ccc(Nc2nc(NC(C)(C)C)ccc2[N+](=O)[O-])cc1F` this time
[out] 109%

[in] Same question, CC1CCCCN1c1ccc(Nc2nc(NC(C)(C)C)ccc2[N+](=O)[O-])cc1F (stereo not shown) this time
[out] 117%

[in] Same question, CC1CCCCN1c1ccc(Nc2nc(N3CCC(N)CC3)ccc2[N+](=O)[O-])cc1F (stereo not shown) this time
[out] 95%

[in] Same question, `CC(C)Nc1ccc([N+](=O)[O-])c(Nc2ccc(N3CCCCC3)c(F)c2)n1` this time
[out] 101%

[in] Same question, NC(=O)C1CCCN(c2ccc(Nc3nc(NCc4ccncc4)ccc3[N+](=O)[O-])cc2F)C1 (stereo not shown) this time
[out] 98%

[in] Same question, `CNc1ccc([N+](=O)[O-])c(Nc2ccc(N3CCC(C(=O)O)CC3)c(F)c2)n1` this time
[out] 95%

[in] Same question, `CC(C)Nc1ccc([N+](=O)[O-])c(Nc2ccc(N3CCOCC3)c(F)c2)n1` this time
[out] 99%

[in] Same question, `CC(C)CNc1ccc([N+](=O)[O-])c(Nc2ccc(N3CCNCC3)c(F)c2)n1` this time
[out] 92%

[in] Same question, `NC1CCN(c2ccc(Nc3nc(N4CCC(O)CC4)ccc3[N+](=O)[O-])cc2F)CC1` this time
[out] 97%

[in] Same question, NC(=O)C1CCCN(c2ccc(Nc3nc(NCCN4CCOCC4)ccc3[N+](=O)[O-])cc2F)C1 (stereo not shown) this time
[out] 106%

* * *

Cell viability (%) Calvarial cell listing for selected compounds.
- Tested on: Osteoblasts (Calvarial cells)
- procedure details: Cytotoxicity test (MTT)
- condition: 1 μM compound, 72 hours, in comparison with vehicle control
Give your result in % as a bare value.

CN1CCN(c2ccc([N+](=O)[O-])c(Nc3ccc(-c4csc(C5CCCCC5)n4)cc3)n2)CC1 :: 100
CNc1ccc([N+](=O)[O-])c(Nc2ccc(N3CCCCC3C)c(F)c2)n1 (centres unmarked) :: 114

The record that follows has no Cell viability (%) Calvarial cell shown yet.
[in] For `CCN(CCO)c1ccc([N+](=O)[O-])c(Nc2ccc(N3CCOCC3)cc2)n1` , what is its reported Cell viability (%) Calvarial cell?
[out] 102

* * *

- System: Osteoblasts (Calvarial cells)
- procedure details: Cytotoxicity test (MTT)
- condition: 1 μM compound, 72 hours, in comparison with vehicle control
readout type: Cell viability (%) Calvarial cell
Give your result in % as a bare value.

Recorded results for 5 compounds are shown here.
CCN(CCO)c1ccc([N+](=O)[O-])c(Nc2ccc(-c3csc(C)n3)cc2)n1 :: 102
O=[N+]([O-])c1ccc(N2CCC(O)CC2)nc1Nc1ccc(N2CCCCC2)c(F)c1 :: 104
CC1=NCCN1c1ccc([N+](=O)[O-])c(Nc2ccc(C(C)(C)C)cc2)n1 :: 96
CNc1ccc([N+](=O)[O-])c(Nc2ccc(N3CCCC(C(N)=O)C3)c(F)c2)n1 (centres unmarked) :: 95
CNc1ccc([N+](=O)[O-])c(Nc2ccc(N3CCSCC3)c(F)c2)n1 :: 97

[in] For `CC(C)(C)Nc1ccc([N+](=O)[O-])c(Nc2ccc(N3CCCCC3)c(F)c2)n1` , what is its reported Cell viability (%) Calvarial cell?
[out] 112

[in] Same question, `CC(C)Nc1ccc([N+](=O)[O-])c(Nc2ccc(N3CCC(O)CC3)c(F)c2)n1` this time
[out] 99

[in] Same question, `CC(C)Nc1ccc([N+](=O)[O-])c(Nc2ccc(N3CCSCC3)c(F)c2)n1` this time
[out] 102

* * *

- Tested on: Osteoblasts (Calvarial cells)
- procedure details: Cytotoxicity test (MTT)
- condition: 1 μM compound, 72 hours, in comparison with vehicle control
readout type: Cell viability (%) Calvarial cell
Give your result in % as a bare value.

CC(C)CNc1ccc([N+](=O)[O-])c(Nc2ccc(N3CCC(C(N)=O)CC3)c(F)c2)n1 :: 87
CN1CCN(c2ccc([N+](=O)[O-])c(Nc3ccc(N4CCCCC4)c(F)c3)n2)CC1 :: 100
CC(C)c1nccn1-c1ccc([N+](=O)[O-])c(Nc2ccc(N3CCNCC3)c(F)c2)n1 :: 89
CC(C)Nc1ccc([N+](=O)[O-])c(Nc2ccc(N3CCCC(CO)C3)c(F)c2)n1 (stereo not shown) :: 102
CC1CCCCN1c1ccc(Nc2nc(NCCCN3CCOCC3)ccc2[N+](=O)[O-])cc1F (stereo not shown) :: 102
CC1=NCCN1c1ccc([N+](=O)[O-])c(Nc2ccc(N3CCOCC3)c(F)c2)n1 :: 104
CC(C)Nc1ccc([N+](=O)[O-])c(Nc2ccc(N3CCNCC3)c(F)c2)n1 :: 92
CC1CCCCN1c1ccc(Nc2nc(NCc3ccncc3)ccc2[N+](=O)[O-])cc1F (stereo not shown) :: 107

[in] For `CCN(CC)c1ccc(Nc2nc(NCCCn3ccnc3)ccc2[N+](=O)[O-])cc1F` , what is its reported Cell viability (%) Calvarial cell?
[out] 129

[in] Same question, O=[N+]([O-])c1ccc(N2CCNCC2)nc1Nc1ccc(N2CCCC(CO)C2)c(F)c1 (stereo not shown) this time
[out] 107

[in] Same question, `CCN(CC)c1ccc(Nc2nc(N3CCN=C3C)ccc2[N+](=O)[O-])cc1F` this time
[out] 106

[in] Same question, `CCN(CC)c1ccc(Nc2nc(N3CCC(O)CC3)ccc2[N+](=O)[O-])cc1F` this time
[out] 104

[in] Same question, CC(C)Nc1ccc([N+](=O)[O-])c(Nc2ccc(N3CCCC(C(N)=O)C3)c(F)c2)n1 (stereo not shown) this time
[out] 103

[in] Same question, `CN1CCN(c2ccc([N+](=O)[O-])c(Nc3ccc(N4CCC(O)CC4)c(F)c3)n2)CC1` this time
[out] 99

[in] Same question, `CC1=NCCN1c1ccc([N+](=O)[O-])c(Nc2ccc(N3CCSCC3)c(F)c2)n1` this time
[out] 102

[in] Same question, CCN(CC)c1ccc([N+](=O)[O-])c(Nc2ccc(N3CCCC(C(N)=O)C3)c(F)c2)n1 (stereo not shown) this time
[out] 104

* * *

- Test system: Osteoblasts (Calvarial cells)
- procedure details: Cytotoxicity test (MTT)
- condition: 1 μM compound, 72 hours, in comparison with vehicle control
Cell viability (%) Calvarial cell listing for selected compounds.
Give your result in % as a bare value.

[in] For `NC(=O)C1CCN(c2ccc(Nc3nc(N4CCOCC4)ccc3[N+](=O)[O-])cc2F)CC1` , what is its reported Cell viability (%) Calvarial cell?
[out] 97

[in] Same question, `CC(C)CNc1ccc([N+](=O)[O-])c(Nc2ccc(N3CCCCC3)c(F)c2)n1` this time
[out] 90

[in] Same question, CN1CCN(c2ccc([N+](=O)[O-])c(Nc3ccc(N4CCCC(C(N)=O)C4)c(F)c3)n2)CC1 (stereo not shown) this time
[out] 131

[in] Same question, `O=[N+]([O-])c1ccc(N2CCC(O)CC2)nc1Nc1ccc(N2CCNCC2)c(F)c1` this time
[out] 96

* * *

inhibition at 1 µM listing for selected molecules.
- System: formation of osteoclasts in co-culture of bone marrow cells and osteoblasts
- procedure details: Osteoclastogenesis inhibition via co-culture system (TRAP staining)
- Assay type: cell-based, mice
- condition: Mus musculus, Osteoclast, 168 h; 1 μM compound, 7 days co-culture, TRAP-positive multinucleated osteoclasts vs vehicle control
Give your result in % as a bare value.

Cc1ccc(Nc2nc(N3CCNCC3)ccc2[N+](=O)[O-])cc1 :: 63
Cc1ccc(Nc2nc(-n3ccnc3C(C)C)ccc2[N+](=O)[O-])cc1 :: 100
CC(C)(C)c1ccc(Nc2nc(NCCCn3ccnc3)ccc2[N+](=O)[O-])cc1 :: 98
Cc1nc(-c2ccc(Nc3nc(NCC(C)C)ccc3[N+](=O)[O-])cc2)cs1 :: 61
Cc1nc(-c2ccc(Nc3nc(N4CCC(N)CC4)ccc3[N+](=O)[O-])cc2)cs1 :: 100

The record that follows has no inhibition at 1 µM shown yet.
[in] For `N#Cc1cccc(Nc2nc(NCCCn3ccnc3)ccc2[N+](=O)[O-])c1` , what is its reported inhibition at 1 µM?
[out] 97
